Recorded IC50 values for a group of molecules are listed next.
# TARGET_DESC: Glycogen synthase kinase-3 beta (Homo sapiens) (UniProt P49841)
# Sequence (P49841 whole entry, looked up): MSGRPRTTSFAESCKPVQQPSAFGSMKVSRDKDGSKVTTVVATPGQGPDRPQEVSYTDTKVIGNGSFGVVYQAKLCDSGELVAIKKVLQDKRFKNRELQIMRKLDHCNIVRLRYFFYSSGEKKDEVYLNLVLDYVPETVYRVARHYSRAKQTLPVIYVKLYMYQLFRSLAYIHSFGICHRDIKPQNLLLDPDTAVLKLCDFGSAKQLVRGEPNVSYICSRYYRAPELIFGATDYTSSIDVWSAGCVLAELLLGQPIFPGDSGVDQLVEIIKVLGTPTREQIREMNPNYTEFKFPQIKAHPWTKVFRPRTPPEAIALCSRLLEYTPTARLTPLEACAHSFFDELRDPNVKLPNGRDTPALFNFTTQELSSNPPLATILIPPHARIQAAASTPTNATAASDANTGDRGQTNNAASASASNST
# PROTOCOL: concentration-response blocking of human GSK3B – biochemical, luminescence, cell-free homogeneous, retest, dose response (AID 434954)
# CONDITION_LABEL: recombinant GSK3beta, ADP-Glo luminescence, 60 min
The source made the active and inactive calls.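 Rule for the calls: active = IC50 at or below a set limit above the highest tested dose; inconclusive = flat curve with 30 to 70% inhibition, or poor fit; inactive = the rest.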

{"MOLECULE": "N=C(N)N=Nc1c(O)[nH]c2ccc(Br)cc12", "IC50": "31.4 µM"}
{"MOLECULE": "CSc1nc2c(c(=O)[nH]1)C(c1ccccc1)C1=C(CC(C)(C)CC1=O)N2 (stereo unspecified)", "IC50": "> 30 µM (inactive)"}
{"MOLECULE": "Cc1cc(=O)[nH]c(N/N=C/c2ccc(-c3ccc([N+](=O)[O-])cc3)o2)n1", "IC50": "> 30 µM (inactive)"}
{"MOLECULE": "Cc1ccc(C2C3=C(CC(C)(C)CC3=O)Nc3n[nH]c(C)c32)cc1 (stereo unspecified)", "IC50": "9.26 µM"}
{"MOLECULE": "COc1cccc(C2C(C#N)=C(C)NC3=C2C(=O)CC(C)(C)C3)c1 (stereo unspecified)", "IC50": "> 30 µM (inactive)"}
{"MOLECULE": "CC1(C)CC(=O)C2=C(C1)NC1=C(C(=O)c3ccccc31)C2c1ccc(O)cc1 (stereo unspecified)", "IC50": "> 30 µM (inactive)"}
{"MOLECULE": "C/C(=N\\O)c1ncc(C(F)(F)F)cc1Cl", "IC50": "> 30 µM (inactive)"}
{"MOLECULE": "COc1ccc(-c2nn(-c3ccccc3)cc2/C=N/Nc2ccc3ccccc3n2)cc1OC", "IC50": "> 30 µM (inactive)"}
{"MOLECULE": "CCOc1ccc(N2C(=O)C(Cl)=C(Nc3ccccc3O)C2=O)cc1", "IC50": "> 30 µM (inactive)"}
{"MOLECULE": "COc1ccc(-c2nn(-c3ccccc3)cc2/C=N/N2C(=O)CSC2=S)cc1", "IC50": "> 30 µM (inactive)"}
{"MOLECULE": "CCOc1cc(C2C3=C(CC(C)(C)CC3=O)Nc3n[nH]c(C)c32)ccc1O (stereo unspecified)", "IC50": "3.32 µM"}
{"MOLECULE": "C=CCOc1ccc(/C=N/Nc2ccccn2)cc1OC", "IC50": "> 30 µM (inactive)"}
{"MOLECULE": "O=C(O)c1ccc(N/N=C/c2ccc(-c3cccc(Cl)c3)o2)cc1", "IC50": "> 30 µM (inactive)"}
{"MOLECULE": "Cc1cc(-c2[nH]nc3c2C(c2cccc(O)c2)C(C#N)=C(N)O3)c(C)s1 (stereo unspecified)", "IC50": "25.4 µM"}
{"MOLECULE": "O=C(O)Cn1cc(/C=N/Nc2ccc([N+](=O)[O-])cn2)c2ccccc21", "IC50": "8.24 µM"}
{"MOLECULE": "CC1=C(C(=O)Nc2ccccc2F)C(c2ccsc2)C2=C(CC(C)(C)CC2=O)N1 (stereo unspecified)", "IC50": "> 30 µM (inactive)"}
{"MOLECULE": "O=C1CC(SC(=Nc2ccccc2)Nc2ccccc2)C(=O)N1c1cccc2ccccc12 (stereo unspecified)", "IC50": "> 30 µM (inactive)"}
{"MOLECULE": "COc1cccc(C2Nc3ccccc3NC3=C2C(=O)CC(C)(C)C3)c1 (stereo unspecified)", "IC50": "> 30 µM (inactive)"}
{"MOLECULE": "Cc1c(C(=O)O)cccc1-n1c(C)cc(/C=N/Nc2ccc([N+](=O)[O-])cn2)c1C", "IC50": "21.3 µM"}
{"MOLECULE": "CSc1nc2n(n1)C(c1cccs1)C1=C(CCCC1=O)N2 (stereo unspecified)", "IC50": "> 30 µM (inactive)"}
{"MOLECULE": "COc1cccc(C2C3=C(CC(C)(C)CC3=O)Nc3cc4c(cc32)OCO4)c1 (stereo unspecified)", "IC50": "> 30 µM (inactive)"}

* * *

# TARGET_DESC: Glycogen synthase kinase-3 beta (Homo sapiens) (UniProt P49841)
# PROTOCOL: concentration-response blocking of human GSK3B – biochemical, luminescence, cell-free homogeneous, retest, dose response (AID 434954)
# CONDITION_LABEL: recombinant GSK3beta, ADP-Glo luminescence, 60 min
Active and inactive are the calls of the source.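 Rule for the calls: active = IC50 at or below a set limit above the highest tested dose; inconclusive = flat curve with 30 to 70% inhibition, or poor fit; inactive = the rest.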
Labels: 1.0 (active), 0.0 (inactive)

{"MOLECULE": "CC(C)n1c(O)c(C=NCc2cccnc2)c(=O)[nH]c1=S", "CLASSIFICATION": 0.0}
{"MOLECULE": "CC1=C(C(=O)OCC2CCCO2)C(c2ccc(O)cc2)NC(=O)N1 (stereo unspecified)", "CLASSIFICATION": 0.0}
{"MOLECULE": "O=c1[nH]c(=O)n(Cc2ccc(F)cc2)c(O)c1C=NCCN1CCCCC1", "CLASSIFICATION": 0.0}
{"MOLECULE": "COc1cc(/C=N/Nc2nc(Nc3ccccc3)nc(N3CCCCC3)n2)ccc1OCC(=O)O", "CLASSIFICATION": 0.0}
{"MOLECULE": "Oc1ccc(/C=N/Nc2ccc(C(F)(F)F)cn2)cc1O", "CLASSIFICATION": 1.0}
{"MOLECULE": "CSc1nsc(/C=C/Nc2ccc(Cl)cc2)c1C#N", "CLASSIFICATION": 0.0}
{"MOLECULE": "CCOC(=O)C1=C(C)Nc2ncnn2C1c1ccc2c(c1)OCO2 (stereo unspecified)", "CLASSIFICATION": 0.0}
{"MOLECULE": "O=C(O)CC1S/C(=N/N=C/c2ccc(-c3ccc(Cl)c([N+](=O)[O-])c3)o2)NC1=O (stereo unspecified)", "CLASSIFICATION": 0.0}
{"MOLECULE": "COc1ccc(-c2nn(-c3ccccc3)cc2/C=N/O)cc1OC", "CLASSIFICATION": 1.0}
{"MOLECULE": "CCCCOC(=O)C1=C(C)Nc2ncnn2C1c1cc(OC)c(OC)cc1OC (stereo unspecified)", "CLASSIFICATION": 0.0}
{"MOLECULE": "COc1cc(CN=Cc2c(O)n(C(C)(C)C)c(=O)[nH]c2=O)cc(OC)c1", "CLASSIFICATION": 0.0}

* * *

Recorded IC50 values for a group of compounds are listed next.
# TARGET_DESC: Glycogen synthase kinase-3 beta (Homo sapiens) (UniProt P49841)
# PROTOCOL: concentration-response blocking of human GSK3B – biochemical, luminescence, cell-free homogeneous, retest, dose response (AID 434954)
# CONDITION_LABEL: recombinant GSK3beta, ADP-Glo luminescence, 60 min
The source made the active and inactive calls.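 The calls were made as follows: active = IC50 at or below a set limit above the highest tested dose; inconclusive = flat curve with 30 to 70% inhibition, or poor fit; inactive = the rest.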
READOUT: IC50

{"COMPOUND": "N#Cc1c(N)nc2c3c(sc(=N)c2c1N)NC(=O)CC3c1ccccc1 (stereo unspecified)", "TARGET_DESC": "Glycogen synthase kinase-3 beta (Homo sapiens) (UniProt P49841)", "READOUT": "IC50", "ASSAY_RESULT": "> 30 µM (inactive)"}
{"COMPOUND": "CCN(CC)CCN1C(=O)C(=O)/C(=C(/O)c2ccc(S(=O)(=O)N3CCOCC3)cc2)C1c1ccccc1 (stereo unspecified)", "TARGET_DESC": "Glycogen synthase kinase-3 beta (Homo sapiens) (UniProt P49841)", "READOUT": "IC50", "ASSAY_RESULT": "> 30 µM (inactive)"}
{"COMPOUND": "Cc1ccccc1/C=N/Nc1ncnc2nc[nH]c12", "TARGET_DESC": "Glycogen synthase kinase-3 beta (Homo sapiens) (UniProt P49841)", "READOUT": "IC50", "ASSAY_RESULT": "17.1 µM"}
{"COMPOUND": "COc1cc(/C=N/Nc2ccc([N+](=O)[O-])cn2)cc(OC)c1O", "TARGET_DESC": "Glycogen synthase kinase-3 beta (Homo sapiens) (UniProt P49841)", "READOUT": "IC50", "ASSAY_RESULT": "5.41 µM"}
{"COMPOUND": "CCCC1=C(C(=O)OCC)C(c2ccco2)n2ncnc2N1 (stereo unspecified)", "TARGET_DESC": "Glycogen synthase kinase-3 beta (Homo sapiens) (UniProt P49841)", "READOUT": "IC50", "ASSAY_RESULT": "17.4 µM"}
{"COMPOUND": "Cc1[nH]nc2c1C(c1cccc(O)c1)C1=C(CC(C)(C)CC1=O)N2 (stereo unspecified)", "TARGET_DESC": "Glycogen synthase kinase-3 beta (Homo sapiens) (UniProt P49841)", "READOUT": "IC50", "ASSAY_RESULT": "0.421 µM"}
{"COMPOUND": "CN(C)C=NC(=O)/C(C#N)=C1\\CCc2ccccc2N1", "TARGET_DESC": "Glycogen synthase kinase-3 beta (Homo sapiens) (UniProt P49841)", "READOUT": "IC50", "ASSAY_RESULT": "20.1 µM"}
{"COMPOUND": "Cc1ccc(C2C3=C(CC(C)(C)CC3=O)Nc3onc(C)c32)cc1 (stereo unspecified)", "TARGET_DESC": "Glycogen synthase kinase-3 beta (Homo sapiens) (UniProt P49841)", "READOUT": "IC50", "ASSAY_RESULT": "> 30 µM (inactive)"}
{"COMPOUND": "COc1ccc(-c2nn(-c3ccccc3)cc2/C=N/Nc2ccc(Cl)c(C(=O)O)c2)cc1OC", "TARGET_DESC": "Glycogen synthase kinase-3 beta (Homo sapiens) (UniProt P49841)", "READOUT": "IC50", "ASSAY_RESULT": "> 30 µM (inactive)"}
{"COMPOUND": "CCOC(=O)c1sc2c(c1C)C(c1cccs1)C1=C(CCCC1=O)N2 (stereo unspecified)", "TARGET_DESC": "Glycogen synthase kinase-3 beta (Homo sapiens) (UniProt P49841)", "READOUT": "IC50", "ASSAY_RESULT": "> 30 µM (inactive)"}
{"COMPOUND": "Oc1ccc(/C=N/Nc2ncnc3nc[nH]c23)cc1", "TARGET_DESC": "Glycogen synthase kinase-3 beta (Homo sapiens) (UniProt P49841)", "READOUT": "IC50", "ASSAY_RESULT": "> 30 µM (inactive)"}
